Target: T1, rhesus PCSK9 (rhesus, UniProt A8T666 31-692, limits assumed)
T1 construct: A rhesus PCSK9-His from Sino Biological is named only for the ELISA of Section 4.3.2; also called monkey PCSK9; rhesus PCSK9-His
T1 sequence (A8T666 31-692 limits assumed): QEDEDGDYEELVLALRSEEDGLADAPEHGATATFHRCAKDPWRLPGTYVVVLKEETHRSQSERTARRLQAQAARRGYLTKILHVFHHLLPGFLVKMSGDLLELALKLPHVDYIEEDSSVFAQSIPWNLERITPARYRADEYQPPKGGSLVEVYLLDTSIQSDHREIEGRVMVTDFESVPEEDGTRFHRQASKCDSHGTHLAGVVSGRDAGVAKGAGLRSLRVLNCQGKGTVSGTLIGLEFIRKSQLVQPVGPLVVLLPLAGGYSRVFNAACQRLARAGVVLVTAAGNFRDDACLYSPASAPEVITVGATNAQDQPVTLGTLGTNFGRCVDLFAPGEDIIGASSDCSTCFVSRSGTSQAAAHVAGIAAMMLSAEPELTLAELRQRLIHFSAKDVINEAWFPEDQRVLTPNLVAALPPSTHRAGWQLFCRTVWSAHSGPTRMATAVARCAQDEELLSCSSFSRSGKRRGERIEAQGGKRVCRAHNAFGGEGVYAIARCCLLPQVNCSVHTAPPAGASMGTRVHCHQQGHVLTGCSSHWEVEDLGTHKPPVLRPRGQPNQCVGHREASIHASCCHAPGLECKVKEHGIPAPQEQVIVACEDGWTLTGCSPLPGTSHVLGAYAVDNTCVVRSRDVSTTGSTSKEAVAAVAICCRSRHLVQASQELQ
Experiment: SPR, Biacore T200, antibody captured, monkey PCSK9 as analyte
We begin with a simple list: items and their reported kon.
Form entry: value (M⁻¹ s⁻¹) — number only.

>  <BINDER>
19.3.8-uAb1-IgG4L (antibody, V domains shown, human IgG4 constant region, lambda light chain) VH: QVQLVQSGAEVKKPGASVKVSCKASGYTFTGYYINWVRQAPGQGLEWMGRINPNSGGTNYAQKFQGRVTMTRDTSINTAYMELSRLRSDDTAVYFCASWEGTVTTWDFYYYYGMDVWGQGTTVTVSS VL: QSALTQPASVSGSPGQSITISCTGTSSDVDTYNYVSWYQHHPGKAPKLIIFDVSNRPSGVSNRFSGSKSGNTASLTISGLQAEDEADYYCSSYTSSSTLVVFGGGTKLTVL

>  <kon [M⁻¹ s⁻¹]>
616000

$$$$

kon for 15.14.2-uAb-IgG4L (antibody, V domains shown, human IgG4 constant region, lambda light chain) VH: EVQMLESGGGLVQPGGSLRLSCAVSGFTFSRFAMSWVRQAPGKGLDWVSSISDNAGRTYFADSVKGRFTISRDNSKNTLYLQMNSLRADDTAVYYCAKLSNWGPYGMDVWGQGTTVTVSS VL: QSALTQPPSASGSPGQSVTISCTGTSSDVGYYNYVSWYQQHPGEAPKLMIYEVNKRPSGVPDRFSGSKSGSTASLTVSGLQAVDEADYYCSSYAGSKNFVVFGGGTKLTVL is 452000

Per the record, 40409 (hIgG4) (antibody, V domains shown, human IgG4 constant region) VH: QLNLQQSGPGLVNPSQTLSLTCAISGGSVSSNSAAWNWIRQSPSRGLEWLGRIYSRSKWYHDYAVSVKGRITINPDTSKNQFFLQLNSVTPEDTAVYYCARDWETIIWGDDGPNYYNYGLDVWGQGTTVTVSS VL: DIQMTQSPSSLSASVGDRVTITCRASQGIRNDLGWYQQKPGKAPKRLIYGASSLQSGVPSRFSGSGSGTEFTLTISSLQPEDFATYYCLQHNNYLWTFGQGTKVEIK has kon of 2.27e+06

17.72.3-uAb2-IgG4K (antibody, V domains shown, human IgG4 constant region, kappa light chain) VH: QVQLQESGPGLVKPSGTLSLTCAVSGGSIRSYNWWSWVRQPPGEGLEWIGEIHHSGTTNYNPSLKSRVTISVDKSKNQFSLKLSSVTAADTAVYYCARDYSGSYFDYWGQGTLVTVSS VL: EVVLTQSPATLSLSPGERATLSCRTSQSLSSYVAWSQQKPGQAPRLLIYDASKRATGVPARFSGSGSGTDFTLTISNLEPEDFAVYYCHQRGNWMSSFGQGTKLEIK has a reported kon of 110000
